IC50: recorded values
Test system: Acanthamoeba castellanii trophozoites
assay_summary: Activity against Acanthamoeba castellanii trophozoites
Format: cell-based
experimental_parameters: trophozoites, n = 2, Table 6, read-out: Acanthamoeba castellanii IC50
Just the number in nM, nothing appended.

Example entries begin here.
given_smiles=CC(C)NC(=N)c1ccc2nc(-c3ccc(Oc4ccc(-c5nc6ccc(C(=N)NC(C)C)cc6[nH]5)c(Br)c4)cc3)[nH]c2c1 target_under_test="Acanthamoeba castellanii trophozoites" observed=390
given_smiles=N=C(N)c1ccc(OCc2ccc(-c3ccc(C(=N)N)cc3)cc2)cc1 target_under_test="Acanthamoeba castellanii trophozoites" observed=2440

Form field IC50, entry N=C(NC1CCCC1)c1ccc2nc(-c3ccc(Oc4ccc(-c5nc6ccc(C(=N)NC7CCCC7)cc6[nH]5)cc4)cc3)[nH]c2c1 : 2990
